- ASSAY_COMMENT: probe aNOTCH3 binding on compound microarray – biochemical, small-molecule microarray, 635/667 nm fluorescence, primary screen (AID 1120);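 further: probe is a biotin-tagged antibody raised against NOTCH3 rather than NOTCH3 protein; score merges spot fluorescence near 667 nm with spot signal to noise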
- CONDITION_DETAILS: higher = more signal
EXPERIMENTAL_ENDPOINT: composite z-score
Answer as a number with no unit attached.

{"columns": ["SMILES_ENTRY", "EXPERIMENTAL_ENDPOINT", "EXPERIMENTAL_RESULT"],
 "data": [
  ["[N-]=[N+]=Nc1ccccc1[C@@H]1OC(c2ccc(OCCCO)cc2)=N[C@]1(CCS(=O)(=O)c1ccccc1)C(=O)N1CCCCC1", "composite z-score", 0.144],
  ["[N-]=[N+]=NCc1ccccc1[C@@H]1OC(c2ccc(OCCCO)cc2)=N[C@]1(Cc1ccccc1)C(=O)O", "composite z-score", -0.0362],
  ["C=CC[C@]1(C(=O)NCCN2CCOCC2)N=C(c2ccc(OCCCO)cc2)O[C@H]1c1ccccc1N=[N+]=[N-]", "composite z-score", 0.0303]
]}

Continue with the next compound.
Reported composite z-score for C[N+](C)(C)CCCC[C@@H]1NC(=O)[C@@H]2C[C@H](C(=O)NCCCCCCNC(=O)CS)[C@H](c3cccc(OCCO)c3)N2C1=O was -0.0984

----------
- ASSAY_COMMENT: binders of probe aHhip on microarray, primary screen, stem cell growth factor project, biochemical, small-molecule microarray, fluorescence 635/667 (AID 1087);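 further: score merges spot fluorescence at 667nm with spot signal to noise ratio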
- CONDITION_DETAILS: higher = more signal
Recorded composite z-score, one value per entry.
Answer as a number with no unit attached.

Example entries begin here.
{"columns": ["SMILES_ENTRY", "EXPERIMENTAL_ENDPOINT", "EXPERIMENTAL_RESULT"],
 "data": [
  ["O=C(NCc1ccccc1)[C@@H]1c2ccccc2C(=O)N(C2CCCCC2)[C@H]1c1ccc(CO)cc1", "composite z-score", -0.283],
  ["CCCC[C@@H]1C[C@H]1[C@@H](NC(=O)c1ccccc1)c1ccc(-c2ccccc2)cc1", "composite z-score", -0.21],
  ["COCCOC(=O)N1C(=O)[C@@]2(c3cc(C#Cc4ccc(OC)cc4)ccc31)[C@H](C(N)=O)[C@H]1C(=O)O[C@H](c3ccccc3)[C@H](c3ccccc3)N1[C@@H]2c1ccc(O)cc1", "composite z-score", -0.376],
  ["C#C[C@H]1Oc2ccccc2S(=O)(=O)N2CCC[C@@H]12", "composite z-score", 0.0373]
]}

Reported composite z-score for COC(=O)[C@@]1(Cc2ccc(OC)cc2)[C@H]2c3cc(C(=O)N4CCCC4)n(CCc4ccccn4)c3C[C@H]2CN1C(=O)c1ccccc1 was 0.251

----------
- TEST_SYSTEM: Left-right determination factor 2 (Homo sapiens)
- ASSAY_COMMENT: small molecules binding LEFTY2 protein – biochemical, small-molecule microarray, 635 nm fluorescence scan, primary screen (AID 1110)
- CONDITION_DETAILS: higher = more signal
Recorded composite z-score, one value per entry.
Answer as a number with no unit attached.

Example entries begin here.
{"columns": ["COMPOUND", "composite z-score"],
 "data": [
  ["COc1cc(CO)cc(I)c1O[C@H]1C=C(C(=O)NCCO)C[C@@H](N(CCc2cccc(F)c2)C(=O)CCC2CCCC2)[C@@H]1O", 0.195],
  ["CC(c1ccccc1)C(O)C1C=CC2C(=O)N(c3ccccc3)C(=O)C2N1Nc1ccccc1F (stereo not given)", 0.0648],
  ["COc1ccccc1CN1C(=O)c2ccccc2[C@](Cc2ccccc2I)(C(=O)NC2CC2)[C@@H]1c1ccc(CO)cc1", 0.471],
  ["O=C1O[C@H](c2ccccc2)[C@H](c2ccccc2)N2[C@H]1[C@@H](C(=O)NC[C@H](O)c1ccccc1)[C@]1(C(=O)Nc3ccc(C#CC4=CCCCC4)cc31)[C@H]2c1ccc(O)cc1", 0.538]
]}

Continue with the next compound.
Reported composite z-score for O=C(NCc1ccccc1)[C@@H]1c2ccccc2C(=O)N(Cc2cc(F)cc(C(F)(F)F)c2)[C@H]1c1ccc(CO)cc1 was -0.244
